Tested on: Calf thymus DNA
Procedure text: DNA binding affinity at low ionic strength as change in midpoint
Format: nucleic-acid assay
Condition details: Bos taurus
Recorded ΔTm for the following molecules
State just the number; it will be interpreted in °C.

Study these solved cases before continuing.
- Compound smiles: "Cl.Cl.N=C(N)c1ccc(OCCCCOc2ccc(C(=N)N)cc2Cl)c(Cl)c1"
  Target entity: "Calf thymus DNA"
  ΔTm / °C: 8.9
- Compound smiles: "COc1cc(C(=N)N)ccc1OCCCCCOc1ccc(C(=N)N)cc1OC.Cl.Cl"
  Target entity: "Calf thymus DNA"
  ΔTm / °C: 12
- Compound smiles: "Cl.Cl.N=C(N)c1ccc(OCCCCCOc2ccc(C(=N)N)cc2[N+](=O)[O-])c([N+](=O)[O-])c1"
  Target entity: "Calf thymus DNA"
  ΔTm / °C: 9.7
- Compound smiles: "Cl.Cl.N=C(N)c1ccc(OCCCOc2ccc(C(=N)N)cc2)cc1"
  Target entity: "Calf thymus DNA"
  ΔTm / °C: 14.7

API: the following record is the query input.
// query ΔTm value for entry Cl.N=C(N)c1ccc(NCCCCCNc2ccc(C(=N)N)cc2N)c(N)c1 11

----------
Tested on: Calf thymus DNA
Procedure text: DNA binding affinity at low ionic strength as change in midpoint
Type: nucleic-acid assay
Condition details: Bos taurus
Recorded ΔTm for the following compounds
State just the number; it will be interpreted in °C.

- Compound: "Cl.N=C(N)c1ccc(NCCCCCCNc2ccc(C(=N)N)cc2N)c(N)c1"
  ΔTm / °C: 8.3
- Compound: "Cl.N=C(N)c1ccc(NCCCCCNc2ccc(C(=N)N)cc2)cc1"
  ΔTm / °C: 11.3
- Compound: "Cl.N=C(N)c1ccc(OCCCCCOc2ccc(C(=N)N)cc2N)c(N)c1"
  ΔTm / °C: 10.8
- Compound: "Cl.Cl.N=C(N)c1cccc(OCCCCCOc2cccc(C(=N)N)c2)c1"
  ΔTm / °C: 6.8

Form entry - test system: Calf thymus DNA; read-out: ΔTm; compound: COc1cc(C(=N)N)ccc1OCCCCOc1ccc(C(=N)N)cc1OC.Cl.Cl 10.2

Now consider Cl.Cl.N=C(N)c1ccc(OCCCCOc2ccc(C(=N)N)cc2[N+](=O)[O-])c([N+](=O)[O-])c1 and answer again. 8.5

Now consider Cl.N=C(N)c1ccc(NCCCNc2ccc(C(=N)N)cc2N)c(N)c1 and answer again. 11

Now consider Cl.Cl.N=C(N)c1ccc(OCCCCCCOc2ccc(C(=N)N)cc2)cc1 and answer again. 9.1

Now consider Cl.Cl.N=C(N)c1ccc(OCCCCCOc2ccc(C(=N)N)cc2Cl)c(Cl)c1 and answer again. 10.5

Now consider Cl.N=C(N)c1ccc(NCCCCNc2ccc(C(=N)N)cc2)cc1 and answer again. 10.3

Now consider Cl.N=C(N)c1ccc(OCCCCCOc2ccc(C(=N)N)cc2)cc1 [PENTAMIDINE HYDROCHLORIDE] and answer again. 10.7

Now consider Cl.Cl.N=C(N)c1cccc(OCCCCOc2cccc(C(=N)N)c2)c1 and answer again. 8.1

----------
Target entity: Serine protease 1 (Homo sapiens)
Procedure text: Inhibition of trypsin by amidase assay.
// returns NO unless Ki is strictly below 2000 nM, in which case YES

- Compound: "Cl.Cl.N=C(N)c1ccc(OCCCCCCOc2ccc(C(=N)N)cc2)cc1"
  Target entity: "Serine protease 1 (Homo sapiens)"
  Assigned label: "NO"
- Compound: "Cl.N=C(N)c1ccc(OCCCCCCOc2ccc(C(=N)N)cc2N)c(N)c1"
  Target entity: "Serine protease 1 (Homo sapiens)"
  Assigned label: "NO"
- Compound: "COc1cc(C(=N)N)ccc1OCCCOc1ccc(C(=N)N)cc1OC.Cl.Cl"
  Target entity: "Serine protease 1 (Homo sapiens)"
  Assigned label: "YES"
- Compound: "Cl.N=C(N)c1ccc(OCCCCCOc2ccc(C(=N)N)cc2)cc1 [PENTAMIDINE HYDROCHLORIDE]"
  Target entity: "Serine protease 1 (Homo sapiens)"
  Assigned label: "NO"
- Compound: "Cl.N=C(N)c1ccc(OCCCCCOc2ccc(C(=N)N)cc2N)c(N)c1"
  Target entity: "Serine protease 1 (Homo sapiens)"
  Assigned label: "YES"

Ki under 2000 nM? Item: Cl.N=C(N)c1ccc(NCCCNc2ccc(C(=N)N)cc2N)c(N)c1 NO

Now consider Cl.N=C(N)c1ccc(NCCCCCNc2ccc(C(=N)N)cc2[N+](=O)[O-])c([N+](=O)[O-])c1 and answer again. NO

----------
Recorded ΔTm for the following compounds
Tested on: Calf thymus DNA
Procedure text: DNA binding affinity at low ionic strength as change in midpoint
Assay type: nucleic-acid assay
Condition details: Bos taurus
State just the number; it will be interpreted in °C.

Study these solved cases before continuing.
- Compound smiles: "Cl.c1cc(C2=NCCN2)ccc1OCCCCCOc1ccc(C2=NCCN2)cc1"
  Unit of measurement: "°C"
  ΔTm: 10.5
- Compound smiles: "Cl.N=C(N)c1ccc(OCCOc2ccc(C(=N)N)cc2N)c(N)c1"
  Unit of measurement: "°C"
  ΔTm: 8.8
- Compound smiles: "Cl.Cl.N=C(N)c1ccc(OCCCCOc2ccc(C(=N)N)cc2)cc1"
  Unit of measurement: "°C"
  ΔTm: 8.3
- Compound smiles: "N=C(N)c1ccc(OCCOc2ccc(C(=N)N)cc2)cc1"
  Unit of measurement: "°C"
  ΔTm: 5.4
- Compound smiles: "COc1cc(C(=N)N)ccc1OCCCOc1ccc(C(=N)N)cc1OC.Cl.Cl"
  Unit of measurement: "°C"
  ΔTm: 16.3

API: the following record is the query input.
Form entry - test system: Calf thymus DNA; read-out: ΔTm; compound: Cl.N=C(N)c1ccc(NCCCCNc2ccc(C(=N)N)cc2N)c(N)c1 10.5

----------
Target entity: Serine protease 1 (Homo sapiens, UniProt P07477)
Sequence (P07477 whole entry): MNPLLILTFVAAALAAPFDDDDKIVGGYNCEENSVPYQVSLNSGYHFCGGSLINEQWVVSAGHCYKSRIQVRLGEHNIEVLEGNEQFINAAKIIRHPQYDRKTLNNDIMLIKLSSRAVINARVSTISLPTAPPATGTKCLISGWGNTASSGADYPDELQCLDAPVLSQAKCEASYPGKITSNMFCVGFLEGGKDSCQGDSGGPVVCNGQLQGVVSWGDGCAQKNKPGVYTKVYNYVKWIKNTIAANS
Procedure text: Inhibition of trypsin by amidase assay.
// returns false unless Ki is strictly below 4 µM, in which case true

Answered cases to consult:
- Compound smiles: "N=C(N)c1ccc(OCCOc2ccc(C(=N)N)cc2)cc1"
  Assigned label: "false"
- Compound smiles: "Cl.c1cc(C2=NCCN2)ccc1OCCCCCOc1ccc(C2=NCCN2)cc1"
  Assigned label: "false"

Ki under 4 µM? Item: Cl.N=C(N)c1ccc(NCCNc2ccc(C(=N)N)cc2N)c(N)c1 false

Now consider Cl.N=C(N)c1ccc(NCCCCCNc2ccc(C(=N)N)cc2N)c(N)c1 and answer again. false

Now consider Cl.N=C(N)c1ccc(NCCCNc2ccc(C(=N)N)cc2[N+](=O)[O-])c([N+](=O)[O-])c1 and answer again. false

Now consider COc1cc(C(=N)N)ccc1OCCCCCOc1ccc(C(=N)N)cc1OC.Cl.Cl and answer again. true

Now consider Cl.Cl.N=C(N)c1cccc(OCCCCCOc2cccc(C(=N)N)c2)c1 and answer again. true

----------
Target entity: Serine protease 1 (Homo sapiens)
Procedure text: Inhibition of trypsin by amidase assay
Readout label: pKi
Interpret pKi as the negative base-10 log of the concentration measured in mol/L.

// query pKi value for entry Cl.N=C(N)c1ccc(OCCOc2ccc(C(=N)N)cc2N)c(N)c1 5.30

----------
System: Calf thymus DNA
Procedure text: DNA binding affinity at low ionic strength as change in midpoint
Format: nucleic-acid assay
Condition details: Bos taurus
// returns 0 (no) unless ΔTm is strictly below 10 °C, in which case 1 (yes)

Answered cases to consult:
- Compound smiles: "Cl.N=C(N)c1ccc(NCCCNc2ccc(C(=N)N)cc2[N+](=O)[O-])c([N+](=O)[O-])c1"
  Assigned label: "0 (no)"
- Compound smiles: "Cl.Cl.N=C(N)c1ccc(OCCCOc2ccc(C(=N)N)cc2N)c(N)c1"
  Assigned label: "0 (no)"
- Compound smiles: "Cl.N=C(N)c1ccc(OCCCCCCOc2ccc(C(=N)N)cc2N)c(N)c1"
  Assigned label: "1 (yes)"
- Compound smiles: "Cl.N=C(N)c1ccc(NCCNc2ccc(C(=N)N)cc2N)c(N)c1"
  Assigned label: "1 (yes)"
- Compound smiles: "Cl.Cl.N=C(N)c1cccc(OCCCOc2cccc(C(=N)N)c2)c1"
  Assigned label: "1 (yes)"

ΔTm under 10 °C? Item: Cl.N=C(N)c1ccc(NCCCNc2ccc(C(=N)N)cc2)cc1 0 (no)

Now consider Cl.N=C(N)c1ccc(OCCCCOc2ccc(C(=N)N)cc2N)c(N)c1 and answer again. 1 (yes)

Now consider Cl.Cl.N=C(N)c1cccc(OCCCCCCOc2cccc(C(=N)N)c2)c1 and answer again. 1 (yes)

Now consider Cl.N=C(N)c1ccc(NCCCCCNc2ccc(C(=N)N)cc2[N+](=O)[O-])c([N+](=O)[O-])c1 and answer again. 0 (no)

----------
Recorded pKi for the following molecules
Target entity: Serine protease 1 (Homo sapiens, UniProt P07477)
Procedure text: Inhibition of trypsin by amidase assay.
Interpret pKi as the negative base-10 log of the concentration measured in mol/L.

- Compound smiles: "Cl.Cl.N=C(N)c1cccc(OCCCOc2cccc(C(=N)N)c2)c1"
  Target entity: "Serine protease 1 (Homo sapiens, UniProt P07477)"
  pKi: 5.96
- Compound smiles: "Cl.Cl.N=C(N)c1ccc(OCCCCOc2ccc(C(=N)N)cc2[N+](=O)[O-])c([N+](=O)[O-])c1"
  Target entity: "Serine protease 1 (Homo sapiens, UniProt P07477)"
  pKi: 5.27
- Compound smiles: "Cl.N=C(N)c1ccc(NCCCNc2ccc(C(=N)N)cc2)cc1"
  Target entity: "Serine protease 1 (Homo sapiens, UniProt P07477)"
  pKi: 5.96

// query pKi value for entry Cl.Cl.N=C(N)c1ccc(OCCCCOc2ccc(C(=N)N)cc2)cc1 5.82

Now consider Cl.Cl.N=C(N)c1ccc(OCCCOc2ccc(C(=N)N)cc2)cc1 and answer again. 5.48

Now consider Cl.N=C(N)c1ccc(NCCCCCNc2ccc(C(=N)N)cc2)cc1 and answer again. 5.85

Now consider Cl.Cl.N=C(N)c1cccc(OCCCCCCOc2cccc(C(=N)N)c2)c1 and answer again. 5.40

Now consider Cl.Cl.N=C(N)c1ccc(OCCCCCOc2ccc(C(=N)N)cc2[N+](=O)[O-])c([N+](=O)[O-])c1 and answer again. 6.00

Now consider Cl.Cl.N=C(N)c1cccc(OCCCCOc2cccc(C(=N)N)c2)c1 and answer again. 5.74

The origin of these recorded values is ChEMBL document CHEMBL1124749.
